The following compounds are listed with their measured pIC50 values.
Molecular target: LOXL2 (Homo sapiens, UniProt Q9Y4K0)
Construct: purchased R&D Systems/Bio-techne
Sequence (Q9Y4K0 26-774, species assumed): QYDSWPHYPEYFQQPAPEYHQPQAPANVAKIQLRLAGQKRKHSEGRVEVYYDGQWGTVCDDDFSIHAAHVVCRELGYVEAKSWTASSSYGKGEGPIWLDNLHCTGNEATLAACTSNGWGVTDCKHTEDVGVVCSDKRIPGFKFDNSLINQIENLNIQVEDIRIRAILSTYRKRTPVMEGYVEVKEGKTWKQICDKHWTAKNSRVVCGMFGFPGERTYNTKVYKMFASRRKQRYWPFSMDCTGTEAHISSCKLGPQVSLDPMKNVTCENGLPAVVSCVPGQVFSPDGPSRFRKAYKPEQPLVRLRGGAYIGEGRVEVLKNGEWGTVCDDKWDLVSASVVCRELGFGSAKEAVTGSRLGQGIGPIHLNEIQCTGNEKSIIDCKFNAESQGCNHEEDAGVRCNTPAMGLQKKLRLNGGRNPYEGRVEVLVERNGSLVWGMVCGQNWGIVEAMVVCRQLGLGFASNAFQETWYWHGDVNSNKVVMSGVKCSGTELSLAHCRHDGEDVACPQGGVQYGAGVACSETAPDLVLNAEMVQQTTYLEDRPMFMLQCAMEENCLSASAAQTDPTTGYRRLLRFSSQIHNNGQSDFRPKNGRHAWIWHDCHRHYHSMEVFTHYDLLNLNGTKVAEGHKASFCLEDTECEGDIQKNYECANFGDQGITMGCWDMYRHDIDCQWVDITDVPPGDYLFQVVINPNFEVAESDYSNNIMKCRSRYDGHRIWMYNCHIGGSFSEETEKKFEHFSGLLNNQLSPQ
Test: LOX isoform activity assay (ROS Glo), LOXL2
Type: biochemical
Settings: 20 hr incubation with enzyme; read-out: LOXL2 IC50 c) 20 hr
Description: LOX was extracted from pig skin by previously described methods (Shackleton and Hulmes, 1990). LOXL2 and LOXL3 were obtained from R&D Systems/Bio-techne. The Promega ROS Glo assay kit (G8821) was used to assess enzyme activity. […] Enzymes were diluted according to specific pre-determined activity in assay buffer (100 mM CHES, pH 9, 0.05% (w/v) pluronic F-127, 0.5% (w/v) BSA, 1 mM MgCl2, 1 M urea, 100 mM NaCl) and added to the plate. […]
Scale: pIC50 equals -log10([C]), with [C] in mol/L.

# value lookup — system LOXL2 (Homo sapiens, UniProt Q9Y4K0), readout pIC50, item CC1(C)C[C@@H]2CN(C(=O)NCCO)C[C@H]1N(c1ccc(OCCCS(=O)(=O)CCN)cc1)C2 [Example 34]
5.03

* * *

Target: LOX (Sus scrofa, UniProt P45845)
Construct: LOX was extracted from pig skin by previously described methods
Sequence (P45845 1-249): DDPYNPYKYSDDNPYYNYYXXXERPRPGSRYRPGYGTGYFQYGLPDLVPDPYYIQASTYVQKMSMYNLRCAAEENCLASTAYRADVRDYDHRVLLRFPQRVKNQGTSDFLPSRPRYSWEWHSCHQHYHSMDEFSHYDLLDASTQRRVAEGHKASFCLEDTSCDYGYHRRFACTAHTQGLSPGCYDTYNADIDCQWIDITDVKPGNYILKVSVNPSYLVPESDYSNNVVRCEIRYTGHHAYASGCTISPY
Test: LOX isoform activity assay (ROS Glo), LOX
Details: 1 h incubation with enzyme
The following molecules are listed with their measured IC50 values.
Provide only the numeric value, understood in µM.

Answered examples (3):
NCCS(=O)(=O)C(F)C(=O)N1C[C@@H]2CN(c3ccc(Br)cc3)C[C@@H]2C1 (stereo partly shown) [Example 19] = 0.66
CCOc1ccc(N2C[C@H]3CN(C(=O)C(F)S(=O)(=O)CCN)C[C@@H]2C(C)(C)C3)cc1 (stereo partly shown) [Example 15] = 2.2
CCOC(=O)CCC(C(=O)N1C[C@@H]2C[C@H]1CN2c1ccc(OCC)cc1)S(=O)(=O)CCN (stereo partly shown) [Example 41] = 41

# value lookup — system LOX (Sus scrofa, UniProt P45845), readout IC50, item CCOc1ccc(N2C[C@H]3CN(C(=O)c4ccc(S(=O)(=O)CCN)cc4)C[C@@H]2C(C)(C)C3)cc1 [Example 31]
96

* * *

Target: LOXL2 (Homo sapiens)
Construct: purchased R&D Systems/Bio-techne
Experiment: LOX isoform activity assay (ROS Glo), LOXL2
Format: biochemical
Conditions: 1 hr incubation with enzyme; read-out: LOXL2 IC50 b) 1 hr
Procedure: LOX was extracted from pig skin by previously described methods (Shackleton and Hulmes, 1990). LOXL2 and LOXL3 were obtained from R&D Systems/Bio-techne. The Promega ROS Glo assay kit (G8821) was used to assess enzyme activity. […] Enzymes were diluted according to specific pre-determined activity in assay buffer (100 mM CHES, pH 9, 0.05% (w/v) pluronic F-127, 0.5% (w/v) BSA, 1 mM MgCl2, 1 M urea, 100 mM NaCl) and added to the plate. […]
Recorded Metric: pIC50
Scale: pIC50 equals -log10([C]), with [C] in mol/L.

NCCS(=O)(=O)CC(=O)N1CCN(c2ccccc2)CC1 [Example 13] = 6.40
CCOC(=O)CCC(C(=O)N1C[C@@H]2C[C@H]1CN2c1ccc(OCC)cc1)S(=O)(=O)CCN (stereo partly shown) [Example 41] = 5.51
CCOc1ccc(N2C[C@@H]3C[C@H]2CN3C(=O)C2(S(=O)(=O)CCN)CC2)cc1 [Example 42] = 4.96

# value lookup — system LOXL2 (Homo sapiens), readout pIC50, item NCCS(=O)(=O)C(F)C(=O)N1C[C@@H]2CN(c3ccc(Br)cc3)C[C@@H]2C1 (stereo partly shown) [Example 19]
6.82

* * *

The following compounds are listed with their measured IC50 values.
biological target: LOXL2 (Homo sapiens); construct: purchased R&D Systems/Bio-techne; assay: LOX isoform activity assay (ROS Glo), LOXL2; format: biochemical; conditions: 20 min incubation with enzyme; read-out: LOXL2 IC50 a) 20 min
Provide only the numeric value, understood in µM.

CCOc1ccc(N2CC3CN(CCS(=O)(=O)CCN)CC3C2)cc1 (stereo not drawn) = 7.3
CCOc1ccc(N2C[C@H]3CN(C(=O)c4ccc(S(=O)(=O)CCN)cc4)C[C@@H]2C(C)(C)C3)cc1 = 16

For the next question, use this compound.
What measured IC50 goes with `NCCS(=O)(=O)CCN1CCCN(c2ccc(N3CCS(=O)(=O)CC3)cc2)CC1` ?
8.1

* * *

molecular target: LOXL3 (Homo sapiens, UniProt P58215); assay: LOX isoform activity assay (ROS Glo), LOXL3; conditions: 1 h incubation with enzyme
Sequence (P58215 26-753, species assumed): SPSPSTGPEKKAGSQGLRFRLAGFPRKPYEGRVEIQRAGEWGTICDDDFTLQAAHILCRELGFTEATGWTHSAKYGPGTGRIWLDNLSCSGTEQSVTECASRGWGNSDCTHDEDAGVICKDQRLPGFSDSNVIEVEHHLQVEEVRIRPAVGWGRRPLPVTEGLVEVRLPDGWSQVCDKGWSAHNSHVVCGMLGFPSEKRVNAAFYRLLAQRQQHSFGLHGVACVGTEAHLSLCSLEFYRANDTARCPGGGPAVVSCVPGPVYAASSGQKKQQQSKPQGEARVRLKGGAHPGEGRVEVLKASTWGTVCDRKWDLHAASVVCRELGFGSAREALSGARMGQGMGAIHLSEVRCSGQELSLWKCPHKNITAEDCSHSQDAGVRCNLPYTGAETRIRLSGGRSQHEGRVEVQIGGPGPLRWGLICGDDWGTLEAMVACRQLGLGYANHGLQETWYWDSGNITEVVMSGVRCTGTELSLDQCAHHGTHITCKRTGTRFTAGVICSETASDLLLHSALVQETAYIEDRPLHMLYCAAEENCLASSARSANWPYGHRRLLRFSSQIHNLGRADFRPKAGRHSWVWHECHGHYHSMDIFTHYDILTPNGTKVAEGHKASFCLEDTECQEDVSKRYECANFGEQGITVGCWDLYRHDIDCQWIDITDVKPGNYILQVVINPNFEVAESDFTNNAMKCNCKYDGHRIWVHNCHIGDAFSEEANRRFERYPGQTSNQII
Values of IC50 strictly less than 300 nM map to condition met, and values of at least 300 nM map to condition not met.

Example results:
NCCS(=O)(=O)C(F)C(=O)N1C[C@@H]2CN(c3ccc(Br)cc3)C[C@@H]2C1 (some centres unmarked) = condition met
NCCS(=O)(=O)C(F)C(=O)N1C[C@@H]2CN(c3c(F)c(F)c(F)c(F)c3F)C[C@@H]2C1 (some centres unmarked) = condition not met
NCCS(=O)(=O)CC(=O)N1CCN(c2ccccc2)CC1 = condition met
NCCS(=O)(=O)C(F)C(=O)N1C[C@@H]2CN(c3ccc(F)cc3)C[C@@H]2C1 (mixture of isomers) = condition not met

Here is the next item to consider.
Here's an entry: `CCOc1ccc(N2C[C@@H]3C[C@H]2CN3C(=O)CS(=O)(=O)CCN)cc1` . Is its IC50 below 300 nM?
condition not met

* * *

Target: monoamine oxidase B (MAO-B) (Homo sapiens, UniProt P27338)
Sequence (P27338 1-520): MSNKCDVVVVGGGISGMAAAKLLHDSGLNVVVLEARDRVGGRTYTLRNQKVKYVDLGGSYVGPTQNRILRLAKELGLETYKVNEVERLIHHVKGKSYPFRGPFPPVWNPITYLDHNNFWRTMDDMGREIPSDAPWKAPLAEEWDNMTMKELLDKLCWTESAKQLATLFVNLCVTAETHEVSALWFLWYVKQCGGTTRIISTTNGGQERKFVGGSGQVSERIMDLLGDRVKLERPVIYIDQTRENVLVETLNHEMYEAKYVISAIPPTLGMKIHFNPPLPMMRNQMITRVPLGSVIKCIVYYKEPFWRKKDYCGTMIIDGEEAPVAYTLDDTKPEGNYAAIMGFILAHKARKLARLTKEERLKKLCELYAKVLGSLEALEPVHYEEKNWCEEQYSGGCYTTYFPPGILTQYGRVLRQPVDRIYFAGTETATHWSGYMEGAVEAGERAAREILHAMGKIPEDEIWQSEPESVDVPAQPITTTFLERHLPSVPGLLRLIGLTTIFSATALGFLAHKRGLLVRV
Recorded Metric: IC50

Answered examples (3):
NCCS(=O)(=O)CCN1CCCN(c2ccc(N3CCS(=O)(=O)CC3)cc2)CC1 = > 100 µM
CCOc1ccc(N2C[C@H]3CN(c4ccc(S(=O)(=O)CCN)cc4)C[C@@H]2C(C)(C)C3)cc1 = > 100 µM
CCOc1ccc(N2C[C@H]3CN(CCS(=O)(=O)CCN)C[C@@H]2C(C)(C)C3)cc1 = > 100 µM

What measured IC50 goes with `CCOc1ccc(N2C[C@@H]3C[C@H]2CN3C(=O)CS(=O)(=O)CCN)cc1` ?
> 100 µM

* * *

Biological target: LOX (Sus scrofa, UniProt P45845)
Construct: LOX was extracted from pig skin by previously described methods
Sequence (P45845 1-249): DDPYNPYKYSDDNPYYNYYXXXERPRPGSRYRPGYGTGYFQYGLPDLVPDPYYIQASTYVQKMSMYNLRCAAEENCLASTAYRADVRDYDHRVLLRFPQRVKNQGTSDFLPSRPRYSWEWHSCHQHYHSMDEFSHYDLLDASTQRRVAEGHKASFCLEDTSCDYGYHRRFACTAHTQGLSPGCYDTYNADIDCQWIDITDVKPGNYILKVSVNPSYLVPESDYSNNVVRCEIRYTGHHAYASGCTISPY
Test: LOX isoform activity assay (ROS Glo), LOX
Conditions: 1 h incubation with enzyme
pIC50: −log10 of the molar value.
Binary call on pIC50: T from 5 upward, F beneath that.

Example results:
CCOc1ccc(N2C[C@H]3CN(C(=O)Nc4ccc(S(=O)(=O)CCN)cc4)C[C@@H]2C(C)(C)C3)cc1 = F
CCOc1ccc(N2C[C@H]3CN(CCCS(=O)(=O)CCN)C[C@@H]2C(C)(C)C3)cc1 = F
CCOc1ccc(N2C[C@@H]3CC[C@H]2CN(C(=O)CS(=O)(=O)CCN)C3)cc1 = F
NCCS(=O)(=O)C(F)C(=O)N1C[C@@H]2CN(c3c(F)c(F)c(F)c(F)c3F)C[C@@H]2C1 (stereo partly shown) = T
CCOc1ccc(N2C[C@H]3CN(C(=O)c4cccc(S(=O)(=O)CCN)c4)C[C@@H]2C(C)(C)C3)cc1 = F

Hello, I need to know if NCCS(=O)(=O)C(F)C(=O)N1C[C@@H]2CN(c3ccc(F)cc3)C[C@@H]2C1 (mixture of isomers) has measured pIC50 not below 5. Thanks!
T

Values from patent US20220017516A1
